Tested system: importin α5 (79-538) in the ITC cell (human) (UniProt P52294)
Assay summary: ITC
Ends that are not written are not given here.
Result type: Kd (µM)
Unit µM implied. Number only.

Ask: Give Kd for KRPRSPSS (not fully specified) [unphosphorylated EBNA-1 NLS peptide (379-KRPRSPSS-386)]
Result: 60
